Attribution: patent EP0039646A1

experiment: Acute oral toxicity in mice
condition parameters: mouse, in vivo, voie orale, souris, read-out: toxicité aiguë
assay readout: LD50 (mg/kg)
Please respond with the number in mg/kg and leave the unit unwritten.

Q: Look up LD50: COc1ccccc1N1CCN(CC(O)C2=COc3ccccc3O2)CC1 (stereo not shown)
Result: 120
